Tested on: MCF-10F/Beas2b cells
Experiment: MTT cytotoxicity, healthy cells MCF-10F/Beas2b
Type: cell-based, human
Settings: Homo sapiens; MTT, no * mark (incubation time not given)
quantity name: IC50 (nM)
# number only, unit nM dropped from output

Consider the compound O=C1/C(=C\c2c[nH]c3ccccc23)c2cc(Cl)ccc2N1Cc1ccc(F)cc1 [17C] . State its measured IC50.
2660

----------
Test system: HT-29 cells
Test: MTT cytotoxicity, colon cancer cells HT-29
Format: cell-based, human
Conditions: MTT, no * mark (incubation time not specified)
quantity name: IC50 (µM)
# number only, unit µM dropped from output

>  <compound>
O=C1/C(=C\c2c[nH]c3ccccc23)c2cc(F)ccc2N1Cc1ccc(Cl)cc1 [12C]

>  <IC50 / µM>
1.08

$$$$
>  <compound>
O=C1/C(=C\c2c[nH]c3ccccc23)c2cccc(F)c2N1Cc1cccc(Cl)c1 [32C]

>  <IC50 / µM>
1.65

$$$$
>  <compound>
Cc1cccc(CN2C(=O)/C(=C\c3c[nH]c4ccccc34)c3cc(Cl)ccc32)c1 [20C]

>  <IC50 / µM>
1.16

$$$$
>  <compound>
O=C1/C(=C\c2c[nH]c3ccccc23)c2cc(OC(F)(F)F)ccc2N1Cc1ccc(F)cc1 [3C]

>  <IC50 / µM>
1.38

$$$$

Could you now consider this next compound?
Consider the compound O=C1/C(=C\c2c[nH]c3ccccc23)c2ccccc2N1Cc1cccc(F)c1 [51C] . State its measured IC50.
0.93

----------
System: HT-29 cells
Assay: MTT cytotoxicity, colon cancer cells HT-29
Assay type: cell-based, human
Settings: MTT, no * mark (incubation time not specified)
quantity name: IC50 (µM)
# number only, unit µM dropped from output

Below, each entry is followed by its recorded IC50 result.
>  <molecule>
Cc1cccc(CN2C(=O)/C(=C\c3c[nH]c4ccccc34)c3cc(C)ccc32)c1 [48C]

>  <system name>
HT-29 cells

>  <IC50 (µM)>
1.46

$$$$
>  <molecule>
O=C1/C(=C\c2c[nH]c3ccccc23)c2cccc(Cl)c2N1Cc1ccc(F)cc1 [24C]

>  <system name>
HT-29 cells

>  <IC50 (µM)>
0.73

$$$$
>  <molecule>
Cc1ccc2c(c1)/C(=C/c1c[nH]c3ccccc13)C(=O)N2Cc1cccc(F)c1 [Y8]

>  <system name>
HT-29 cells

>  <IC50 (µM)>
5

$$$$

Consider the molecule O=C1/C(=C\c2c[nH]c3ccccc23)c2cc(F)ccc2N1Cc1ccccc1 [Y5] . State its measured IC50.
2.98

----------
IC50 values for the molecules below.
Test system: HUVEC cells
Test: MTT cytotoxicity, healthy cells HUVEC
Assay type: cell-based, human
Conditions: MTT, no * mark (incubation time not specified)
# number only, unit nM dropped from output

Below, each entry is followed by its recorded IC50 result.
>  <molecule>
Cc1cccc(CN2C(=O)C(=Cc3c[nH]c4ccccc34)c3cccc(F)c32)c1 [34C]

>  <IC50 (nM)>
1690

$$$$
>  <molecule>
O=C1/C(=C\c2c[nH]c3ccccc23)c2cc(Cl)ccc2N1Cc1ccccc1

>  <IC50 (nM)>
1060

$$$$
>  <molecule>
O=C1/C(=C\c2c[nH]c3ccccc23)c2cccc(F)c2N1Cc1ccc(F)cc1 [31C]

>  <IC50 (nM)>
1260

$$$$
>  <molecule>
Cc1cccc(CN2C(=O)/C(=C\c3c[nH]c4ccccc34)c3cc(C)ccc32)c1 [48C]

>  <IC50 (nM)>
1070

$$$$

Could you now consider this next molecule?
Consider the molecule O=C1/C(=C\c2c[nH]c3ccccc23)c2cc(F)ccc2N1Cc1ccc(F)cc1 [10C] . State its measured IC50.
4650

----------
pIC50 values for the compounds below.
Test system: CAKI-1 cells
Test: MTT cytotoxicity, kidney cancer cells CAKI-1
Type: cell-based, human
Conditions: *: effective 72 hours after incubation
Scale note: pIC50 = -log10(concentration in M).

>  <compound>
O=C1/C(=C\c2c[nH]c3ccccc23)c2cccc(F)c2N1Cc1ccc(F)cc1 [31C]

>  <obs value>
5.04

$$$$
>  <compound>
O=C1/C(=C\c2c[nH]c3ccccc23)c2cc(OC(F)(F)F)ccc2N1Cc1cccc(Cl)c1

>  <obs value>
5.55

$$$$
>  <compound>
O=C1/C(=C\c2c[nH]c3ccccc23)c2cccc(F)c2N1Cc1cccc(Cl)c1 [32C]

>  <obs value>
5.06

$$$$

Consider the compound Cc1ccc(CN2C(=O)/C(=C\c3c[nH]c4ccccc34)c3cccc(Cl)c32)cc1 [28C] . State its measured pIC50.
5.12

Consider the compound O=C1/C(=C\c2c[nH]c3ccccc23)c2cc(OC(F)(F)F)ccc2N1Cc1ccc(Cl)cc1 . State its measured pIC50.
5.16

Consider the compound Cc1ccc2c(c1)/C(=C/c1c[nH]c3ccccc13)C(=O)N2Cc1ccc(F)cc1 [45C] . State its measured pIC50.
5.31

Consider the compound Cc1cccc(CN2C(=O)/C(=C\c3c[nH]c4ccccc34)c3cc(Cl)ccc32)c1 [20C] . State its measured pIC50.
5.21

Consider the compound Cc1ccc(CN2C(=O)/C(=C\c3c[nH]c4ccccc34)c3cc(F)ccc32)cc1 . State its measured pIC50.
5.15

Consider the compound O=C1/C(=C\c2c[nH]c3ccccc23)c2cccc(Cl)c2N1Cc1ccc(F)cc1 [24C] . State its measured pIC50.
5.24

Consider the compound O=C1/C(=C\c2c[nH]c3ccccc23)c2cccc(F)c2N1Cc1cccc(F)c1 [30C] . State its measured pIC50.
5.11

Consider the compound Cc1cccc(CN2C(=O)/C(=C\c3c[nH]c4ccccc34)c3cc(C)ccc32)c1 [48C] . State its measured pIC50.
5.46

Consider the compound O=C1/C(=C\c2c[nH]c3ccccc23)c2cc(F)ccc2N1Cc1ccc(F)cc1 [10C] . State its measured pIC50.
5.17

Consider the compound O=C1/C(=C\c2c[nH]c3ccccc23)c2cc(OC(F)(F)F)ccc2N1Cc1cccc(F)c1 . State its measured pIC50.
5.26

Consider the compound O=C1/C(=C\c2c[nH]c3ccccc23)c2cc(Cl)cc(Cl)c2N1Cc1ccccc1 [36C] . State its measured pIC50.
5.40

Consider the compound O=C1/C(=C\c2c[nH]c3ccccc23)c2cccc(Cl)c2N1Cc1cccc(Cl)c1 [25C] . State its measured pIC50.
5.09

----------
Tested on: HUVEC cells
Assay: MTT cytotoxicity, healthy cells HUVEC
Type: cell-based, human
Conditions: MTT, no * mark (incubation time not specified)
quantity name: IC50 (µM)
# number only, unit µM dropped from output

Below, each entry is followed by its recorded IC50 result.
>  <molecule>
O=C1/C(=C\c2c[nH]c3ccccc23)c2cc(F)ccc2N1Cc1ccccc1

>  <system name>
HUVEC cells

>  <quantity name>
IC50

>  <obs value>
2.17

$$$$
>  <molecule>
Cc1ccc2c(c1)/C(=C/c1cn(C)c3ccccc13)C(=O)N2Cc1ccccc1

>  <system name>
HUVEC cells

>  <quantity name>
IC50

>  <obs value>
3.37

$$$$
>  <molecule>
O=C1/C(=C\c2c[nH]c3ccccc23)c2cccc(Cl)c2N1Cc1cccc(Cl)c1 [25C]

>  <system name>
HUVEC cells

>  <quantity name>
IC50

>  <obs value>
1.81

$$$$

Could you now consider this next molecule?
Consider the molecule O=C1C(=Cc2c[nH]c3ccccc23)c2cc(Cl)ccc2N1Cc1cccc(Cl)c1 [18C] . State its measured IC50.
1.07

----------
pIC50 values for the molecules below.
System: A498 cells
Experiment: MTT cytotoxicity, kidney cancer cells A498
Type: cell-based, human
Details: MTT, no * mark (incubation time not specified)
Excerpt: The cytotoxicity, general tyrosine kinase inhibitory effects and cell death (apoptosis/necrosis) assays of 1-benzyl-3-(1H-indol-3-ylmethylidene)-1,3-dihydro-2H-indol-2-one derivatives (Formula 5) of the present invention are studied by the following methods. […] MTT (3-(4,5-dimethylthiazol-2-yl)-2,5-diphenyl-2H-tetrazolium bromide) colorimetric assay provides quantitation of viable cells with ongoing mitochondrial activity in culture medium. […]
Scale note: pIC50 = -log10(concentration in M).

Below, each entry is followed by its recorded pIC50 result.
>  <molecule>
Cc1ccc(CN2C(=O)/C(=C\c3c[nH]c4ccccc34)c3cc(F)ccc32)cc1 [Y25]

>  <pIC50>
5.50

$$$$
>  <molecule>
Cc1cccc(CN2C(=O)/C(=C\c3c[nH]c4ccccc34)c3cc(F)ccc32)c1 [13C]

>  <pIC50>
5.58

$$$$
>  <molecule>
O=C1/C(=C\c2c[nH]c3ccccc23)c2cccc(F)c2N1Cc1cccc(F)c1 [30C]

>  <pIC50>
5.18

$$$$
>  <molecule>
O=C1/C(=C\c2c[nH]c3ccccc23)c2cccc(Cl)c2N1Cc1ccc(F)cc1 [24C]

>  <pIC50>
5.59

$$$$
>  <molecule>
Cc1cccc(CN2C(=O)/C(=C\c3c[nH]c4ccccc34)c3cccc(Cl)c32)c1 [27C]

>  <pIC50>
5.62

$$$$

Consider the molecule Cc1cccc(CN2C(=O)C(=Cc3c[nH]c4ccccc34)c3cccc(F)c32)c1 [34C] . State its measured pIC50.
5.44

Consider the molecule O=C1/C(=C\c2c[nH]c3ccccc23)c2ccccc2N1Cc1cccc(F)c1 [51C] . State its measured pIC50.
5.21

The reported numbers originate from patent US20260335282A1.
